// reported Retention time in HPLC measurement for each item listed
ASSAY_TEXT: Retention time in HPLC (index of hydrophilicity)
Type: physicochemical
CONDITION_DESCRIPTION: Table 6 (eribulin precursors); BEH C18, 0.1% formic acid/acetonitrile gradient, 40° C.
Only the number, expressed in min, is required.

>  <MOLECULE>
C=C1C[C@@H]2CC[C@@]34C[C@H]5O[C@H]6[C@@H](O3)[C@H]3O[C@H](CC[C@@H]3O[C@H]6[C@H]5O4)CC(=O)C[C@@H]3[C@@H](OC)[C@@H](C[C@@H](CNC(=O)OCc4ccc(NC(=O)[C@H](CCCNC(N)=O)NC(=O)[C@@H](NC(=O)[C@H](CC(=O)N[C@H]5CCOC5=O)NC(=O)CCOCCOCCOCCOCCNC(=O)[C@H](CNC(=O)CCP(=O)(O)O)N5C(=O)C=CC5=O)C(C)C)cc4)OP(=O)(O)O)O[C@H]3C[C@H]3O[C@@H](CC[C@@H]1O2)C[C@@H](C)C3=C [Example 26]

>  <MEASURE_NAME>
Retention time in HPLC measurement

>  <ENDPOINT_UNIT>
min

>  <OBSERVED_VALUE>
0.91

$$$$

Retention time in HPLC measurement reading for C=C1C[C@@H]2CC[C@@]34C[C@H]5O[C@H]6[C@@H](O3)[C@H]3O[C@H](CC[C@@H]3O[C@H]6[C@H]5O4)CC(=O)C[C@@H]3[C@@H](OC)[C@@H](C[C@H](O)CNC(=O)OCc4ccc(NC(=O)[C@H](CCCNC(N)=O)NC(=O)[C@@H](NC(=O)[C@H](CC(=O)N[C@H]5CCOC5=O)NC(=O)CCOCCOCCOP(=O)(O)OCCNC(=O)[C@H](CNC(=O)CCP(=O)(O)O)N5C(=O)C=CC5=O)C(C)C)cc4)O[C@H]3C[C@H]3O[C@@H](CC[C@@H]1O2)C[C@@H](C)C3=C [Example 17] : 1.04

Retention time in HPLC measurement reading for C=C1C[C@@H]2CC[C@@]34C[C@H]5O[C@H]6[C@@H](O3)[C@H]3O[C@H](CC[C@@H]3O[C@H]6[C@H]5O4)CC(=O)C[C@@H]3[C@@H](OC)[C@@H](C[C@H](O)CNC(=O)OCc4ccc(NC(=O)[C@H](CCCNC(N)=O)NC(=O)[C@@H](NC(=O)[C@H](CC(=O)N[C@H]5CCOC5=O)NC(=O)CN(C)CCNC(=O)CCOCCOCCOCCOCCNC(=O)[C@H](CNC(=O)CCP(=O)(O)O)N5C(=O)C=CC5=O)C(C)C)cc4)O[C@H]3C[C@H]3O[C@@H](CC[C@@H]1O2)C[C@@H](C)C3=C [Example 16] : 0.97

Retention time in HPLC measurement reading for C=C1C[C@@H]2CC[C@@]34C[C@H]5O[C@H]6[C@@H](O3)[C@H]3O[C@H](CC[C@@H]3O[C@H]6[C@H]5O4)CC(=O)C[C@@H]3[C@@H](OC)[C@@H](C[C@H](O)CNC(=O)OCc4ccc(NC(=O)[C@H](CCCNC(N)=O)NC(=O)[C@@H](NC(=O)[C@H](CC(=O)N[C@H]5CCOC5=O)NC(=O)[C@H](CCCCN(C)C)NC(=O)CCOCCOCCOCCOCCNC(=O)[C@H](CNC(=O)CCP(=O)(O)O)N5C(=O)C=CC5=O)C(C)C)cc4)O[C@H]3C[C@H]3O[C@@H](CC[C@@H]1O2)C[C@@H](C)C3=C [Example 18] : 0.96
